Entry source: patent US11779606B2

ASSAY_SYSTEM: HLA-A*02:01 (Homo sapiens, UniProt P04439, D140Y/D185E/D98H/E176V/E277Q/G131W/G231S/I119V/I121R/I166T/I218V/L300P/L318F/N151K/N90K/P208A/P217A/Q86G/Q94H/R138H/R169H/T345S)
ASSAY_PROTOCOL: MHC binding assay (UV-ligand exchange, β2m ELISA)
EXPERIMENTAL_CONTEXT: MHC class I binding score; peptide exchange yield, binding to HLA-A*02:01, UV-ligand exchange with β2m ELISA
MEASURED_ATTRIBUTE: Peptide exchange

>>> endpoint_result("28 (SQLEKPETA; listed as Homo sapiens) [compound 28]")
"+++ (≥50 = +++)"
>>> endpoint_result("96 (KIIEDLANTV; listed as Homo sapiens) [compound 96]")
"++++ (≥75% = ++++)"
>>> endpoint_result("19 (MLLPWLPKL; listed as Homo sapiens) [compound 19]")
"++++ (≥75% = ++++)"
>>> endpoint_result("70 (LLLQIEPAA; listed as Homo sapiens) [compound 70]")
"++++ (≥75% = ++++)"
>>> endpoint_result("27 (IAAGVPNTDA; listed as Homo sapiens) [compound 27]")
"++ (≥20% = ++)"
>>> endpoint_result("54 (GLSPDQVFL; listed as Homo sapiens) [compound 54]")
"++++ (≥75% = ++++)"
>>> endpoint_result("98 (SLMEVTHDL; listed as Homo sapiens) [compound 98]")
"++++ (≥75% = ++++)"
>>> endpoint_result("2 (ALLDVLVKL; listed as Homo sapiens) [compound 2]")
"++++ (≥75% = ++++)"
>>> endpoint_result("62 (SLLGKPGLTI; listed as Homo sapiens) [compound 62]")
"++++ (≥75% = ++++)"
>>> endpoint_result("55 (MVQQEKLFV; listed as Homo sapiens) [compound 55]")
"+++ (≥50 = +++)"
>>> endpoint_result("26 (KLWTSLVNL; listed as Homo sapiens) [compound 26]")
"++++ (≥75% = ++++)"
>>> endpoint_result("15 (NLVMPLLHI; listed as Homo sapiens) [compound 15]")
"++ (≥20% = ++)"
>>> endpoint_result("40 (FTLPFLVNL; listed as Homo sapiens) [compound 40]")
"++++ (≥75% = ++++)"
>>> endpoint_result("12 (HLDSMNVSI; listed as Homo sapiens) [compound 12]")
"++++ (≥75% = ++++)"
>>> endpoint_result("68 (KLLADAFKV; listed as Homo sapiens) [compound 68]")
"++++ (≥75% = ++++)"
>>> endpoint_result("14 (LLIEVSEEL; listed as Homo sapiens) [compound 14]")
"++++ (≥75% = ++++)"
>>> endpoint_result("42 (WITPVIPAL; listed as Homo sapiens) [compound 42]")
"++++ (≥75% = ++++)"
>>> endpoint_result("74 (TLLSYSIPL; listed as Homo sapiens) [compound 74]")
"++++ (≥75% = ++++)"
>>> endpoint_result("51 (GLLTQVHIL; listed as Homo sapiens) [compound 51]")
"++++ (≥75% = ++++)"
>>> endpoint_result("48 (MLAEIHPKA; listed as Homo sapiens) [compound 48]")
"++++ (≥75% = ++++)"

* * *

Test system: CD8+ T cells
ASSAY_PROTOCOL: In vitro T-cell priming assay (immunogenicity) with artificial APCs loaded with peptide/MHC complexes and anti-CD28
Type: cell-based, human
EXPERIMENTAL_CONTEXT: CD8+ T cells of healthy HLA-A*02 donors, multimer staining, Table 13b
MEASURED_ATTRIBUTE: Wells positive [%]

>>> endpoint_result("37 (KILDEFYNV; listed as Homo sapiens) [compound 37]")
"+++ (50-69% = +++)"
>>> endpoint_result("7 (ALWEEVKATSL; listed as Homo sapiens) [compound 7]")
"+ (<20% = +)"
>>> endpoint_result("50 (GLASYLDRV; listed as Homo sapiens) [compound 50]")
"+ (<20% = +)"
>>> endpoint_result("19 (MLLPWLPKL; listed as Homo sapiens) [compound 19]")
"+++ (50-69% = +++)"
>>> endpoint_result("13 (FLDEGSLLRL; listed as Homo sapiens) [compound 13]")
"+ (<20% = +)"
>>> endpoint_result("51 (GLLTQVHIL; listed as Homo sapiens) [compound 51]")
"+ (<20% = +)"
>>> endpoint_result("48 (MLAEIHPKA; listed as Homo sapiens) [compound 48]")
"+++ (50-69% = +++)"
>>> endpoint_result("2 (ALLDVLVKL; listed as Homo sapiens) [compound 2]")
"+ (<20% = +)"

* * *

System: CD8+ T cells
ASSAY_PROTOCOL: In vitro T-cell priming assay (immunogenicity) with artificial APCs loaded with peptide/MHC complexes and anti-CD28
Assay type: cell-based, human
EXPERIMENTAL_CONTEXT: CD8+ T cells of healthy HLA-A*02 donors, multimer staining, Table 13b
MEASURED_ATTRIBUTE: Wells positive [%]

>>> endpoint_result("65 (IAISQLTFV; listed as Homo sapiens) [compound 65]")
"+ (<20% = +)"
>>> endpoint_result("3 (FLLVPSPIWQL; listed as Homo sapiens) [compound 3]")
"+ (<20% = +)"
>>> endpoint_result("36 (FQVTRTTGV; listed as Homo sapiens) [compound 36]")
"+ (<20% = +)"

* * *

Test system: CD8+ T cells
ASSAY_PROTOCOL: In vitro T-cell priming assay (immunogenicity) with artificial APCs loaded with peptide/MHC complexes and anti-CD28
Format: cell-based, human
EXPERIMENTAL_CONTEXT: CD8+ T cells of healthy HLA-A*02 donors, multimer staining, Table 13b
MEASURED_ATTRIBUTE: Wells positive [%]

>>> endpoint_result("38 (SLSAWLPSL; listed as Homo sapiens) [compound 38]")
"+ (<20% = +)"
>>> endpoint_result("46 (AMVEIIPKV; listed as Homo sapiens) [compound 46]")
"+ (<20% = +)"
>>> endpoint_result("1 (KLLDFSTRI; listed as Homo sapiens) [compound 1]")
"+ (<20% = +)"

* * *

ASSAY_SYSTEM: HLA-A*02:01 (Homo sapiens, UniProt P04439, D140Y/D185E/D98H/E176V/E277Q/G131W/G231S/I119V/I121R/I166T/I218V/L300P/L318F/N151K/N90K/P208A/P217A/Q86G/Q94H/R138H/R169H/T345S)
ASSAY_PROTOCOL: MHC binding assay (UV-ligand exchange, β2m ELISA)
EXPERIMENTAL_CONTEXT: MHC class I binding score; peptide exchange yield, binding to HLA-A*02:01, UV-ligand exchange with β2m ELISA
MEASURED_ATTRIBUTE: Peptide exchange

>>> endpoint_result("9 (FLQEGDLISV; listed as Homo sapiens) [compound 9]")
"++++ (≥75% = ++++)"
>>> endpoint_result("33 (FASERPPSV; listed as Homo sapiens) [compound 33]")
"++++ (≥75% = ++++)"
>>> endpoint_result("34 (LLNVEPAGA; listed as Homo sapiens) [compound 34]")
"++++ (≥75% = ++++)"
>>> endpoint_result("24 (TLTSLNILL; listed as Homo sapiens) [compound 24]")
"++++ (≥75% = ++++)"
>>> endpoint_result("13 (FLDEGSLLRL; listed as Homo sapiens) [compound 13]")
"++++ (≥75% = ++++)"
>>> endpoint_result("63 (LSFKRSLSI; listed as Homo sapiens) [compound 63]")
"++ (≥20% = ++)"
>>> endpoint_result("97 (GLIDDKGTIKL; listed as Homo sapiens) [compound 97]")
"++++ (≥75% = ++++)"
>>> endpoint_result("31 (VVLPIVITL; listed as Homo sapiens) [compound 31]")
"++++ (≥75% = ++++)"
>>> endpoint_result("60 (LLLATLENL; listed as Homo sapiens) [compound 60]")
"++++ (≥75% = ++++)"
>>> endpoint_result("66 (ILNELLNSI; listed as Homo sapiens) [compound 66]")
"++++ (≥75% = ++++)"
>>> endpoint_result("35 (VLLNSNYPV; listed as Homo sapiens) [compound 35]")
"++++ (≥75% = ++++)"
>>> endpoint_result("73 (STTIINLIL; listed as Homo sapiens) [compound 73]")
"++ (≥20% = ++)"
>>> endpoint_result("17 (VLWDLRPSSLI; listed as Homo sapiens) [compound 17]")
"++++ (≥75% = ++++)"
>>> endpoint_result("46 (AMVEIIPKV; listed as Homo sapiens) [compound 46]")
"++++ (≥75% = ++++)"
>>> endpoint_result("41 (LMASEGIWESSL; listed as Homo sapiens) [compound 41]")
"+++ (≥50 = +++)"
>>> endpoint_result("56 (IITNLIVNI; listed as Homo sapiens) [compound 56]")
"+++ (≥50 = +++)"
>>> endpoint_result("43 (AIWSTILIA; listed as Homo sapiens) [compound 43]")
"++ (≥20% = ++)"
>>> endpoint_result("5 (LVWEVVESV; listed as Homo sapiens) [compound 5]")
"++++ (≥75% = ++++)"
>>> endpoint_result("38 (SLSAWLPSL; listed as Homo sapiens) [compound 38]")
"++++ (≥75% = ++++)"
>>> endpoint_result("45 (ALYHQSPLL; listed as Homo sapiens) [compound 45]")
"++++ (≥75% = ++++)"
>>> endpoint_result("65 (IAISQLTFV; listed as Homo sapiens) [compound 65]")
"++++ (≥75% = ++++)"
>>> endpoint_result("4 (YLGDSHVLL; listed as Homo sapiens) [compound 4]")
"++++ (≥75% = ++++)"
>>> endpoint_result("71 (WLMPVMPAL; listed as Homo sapiens) [compound 71]")
"++++ (≥75% = ++++)"
>>> endpoint_result("36 (FQVTRTTGV; listed as Homo sapiens) [compound 36]")
"++++ (≥75% = ++++)"
>>> endpoint_result("101 (KLPEGHLPEV; listed as Homo sapiens) [compound 101]")
"++++ (≥75% = ++++)"
>>> endpoint_result("8 (ILQSLVPAA; listed as Homo sapiens) [compound 8]")
"++++ (≥75% = ++++)"
>>> endpoint_result("16 (ALLDAEQSPVAL; listed as Homo sapiens) [compound 16]")
"++++ (≥75% = ++++)"
>>> endpoint_result("57 (YVLMTSLLL; listed as Homo sapiens) [compound 57]")
"++++ (≥75% = ++++)"
>>> endpoint_result("39 (YIYEDEVRL; listed as Homo sapiens) [compound 39]")
"++++ (≥75% = ++++)"
>>> endpoint_result("52 (LAFVSHVLI; listed as Homo sapiens) [compound 52]")
"++ (≥20% = ++)"
>>> endpoint_result("20 (VLISLPGKV; listed as Homo sapiens) [compound 20]")
"++ (≥20% = ++)"
>>> endpoint_result("6 (ALHDSPVYL; listed as Homo sapiens) [compound 6]")
"++++ (≥75% = ++++)"
>>> endpoint_result("47 (ALLPGVPGL; listed as Homo sapiens) [compound 47]")
"++++ (≥75% = ++++)"
>>> endpoint_result("23 (GLEVLDALL; listed as Homo sapiens) [compound 23]")
"++ (≥20% = ++)"
>>> endpoint_result("22 (SLYDVPVGA; listed as Homo sapiens) [compound 22]")
"++++ (≥75% = ++++)"
>>> endpoint_result("53 (TISISLSSV; listed as Homo sapiens) [compound 53]")
"++++ (≥75% = ++++)"
>>> endpoint_result("44 (WLIPRQLAAA; listed as Homo sapiens) [compound 44]")
"++++ (≥75% = ++++)"
>>> endpoint_result("10 (SLLDKLSGI; listed as Homo sapiens) [compound 10]")
"++++ (≥75% = ++++)"
